target_desc: hmSUCNR1 (Mus musculus, UniProt Q99MT6, G84W/K269N/N18E)
Sequence (Q99MT6 whole entry N18E/G84W/K269N): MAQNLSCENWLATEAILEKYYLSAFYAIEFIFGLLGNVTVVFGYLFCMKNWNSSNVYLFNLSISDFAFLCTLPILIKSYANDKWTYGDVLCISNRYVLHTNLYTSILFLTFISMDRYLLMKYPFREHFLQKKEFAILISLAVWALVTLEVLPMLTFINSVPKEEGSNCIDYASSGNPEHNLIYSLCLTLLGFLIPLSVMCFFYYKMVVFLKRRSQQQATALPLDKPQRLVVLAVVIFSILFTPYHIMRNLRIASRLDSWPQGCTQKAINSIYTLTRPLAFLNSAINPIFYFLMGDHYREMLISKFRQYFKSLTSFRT
test_name: BRET competition binding using 22 as tracer, hmSUCNR1
observed_property: pKi
Answers are plain numbers, as −log10 of the molar value.

For orientation, consider the following solved cases.
# molecule, pKi
measured = [
    ("O=C(O)Cc1ccccc1NC(=O)c1cccc(-c2ccc(Cl)cc2)c1 [Compound 32]", 6.50),
    ("O=C(O)CCC(=O)O [Succinate]", 3.00),
]

Please find the next molecule below.
Reported pKi, molecule CN1CCN(Cc2ccc(-c3cccc(C(=O)Nc4ccccc4CC(=O)O)c3)cc2)CC1 [Compound 1] : ____
7.30

Data provenance: paper PMC10350927
